Cited source for all entries: patent US10759783B2

Record type: IC50 measurement. Applies to: BTK enzyme (Homo sapiens, UniProt Q06187)

- COMPOUND: "Cc1c(Nc2nccc(-c3ccc4c(c3)CCCCC4NC(=O)N3CC(OC(C)(C)C)C3)n2)cnn1C (stereo not shown)"
  IC50: "< 0.01 µM"
- COMPOUND: "Cc1cc(-c2cc(Nc3cc4n(n3)CCOC4)ncn2)ccc1CNC(=O)N1CC(OC(C)C)C1"
  IC50: "< 0.01 µM"
- COMPOUND: "Cc1cc(-c2ccnc(Nc3cnn(C)c3)n2)ccc1CN1Cc2cc(C3CC3)sc2C1=O"
  IC50: "< 0.01 µM"

Now take the following compound into account.
### Prompt Recorded IC50 of Cc1cc(-c2ccnc(NC(=O)C3CCN(C)CC3)c2)ccc1CNC(=O)c1cnc(C(C)(C)C)s1 , please.
### Response 0.01 to 0.099 µM

---

Molecular target: BTK (phospho-BTK) in human whole blood (Homo sapiens, UniProt Q06187)
Sequence (Q06187 whole entry): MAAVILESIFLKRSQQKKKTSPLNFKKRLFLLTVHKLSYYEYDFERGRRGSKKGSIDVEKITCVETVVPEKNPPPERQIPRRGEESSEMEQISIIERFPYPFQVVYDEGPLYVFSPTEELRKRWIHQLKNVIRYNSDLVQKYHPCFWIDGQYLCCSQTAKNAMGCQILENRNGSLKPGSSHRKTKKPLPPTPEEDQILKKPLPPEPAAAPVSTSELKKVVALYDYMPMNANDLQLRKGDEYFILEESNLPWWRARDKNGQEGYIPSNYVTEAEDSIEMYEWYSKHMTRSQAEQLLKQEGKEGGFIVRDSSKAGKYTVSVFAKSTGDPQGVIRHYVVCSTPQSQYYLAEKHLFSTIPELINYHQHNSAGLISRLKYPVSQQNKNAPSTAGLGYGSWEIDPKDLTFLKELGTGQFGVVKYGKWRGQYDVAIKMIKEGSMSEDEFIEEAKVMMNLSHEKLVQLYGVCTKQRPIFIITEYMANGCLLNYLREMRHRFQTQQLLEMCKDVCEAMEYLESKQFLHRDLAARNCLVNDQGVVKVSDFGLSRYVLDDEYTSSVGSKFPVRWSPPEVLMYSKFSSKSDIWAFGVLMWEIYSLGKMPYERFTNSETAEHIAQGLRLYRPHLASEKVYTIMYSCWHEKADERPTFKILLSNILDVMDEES
Assay: In vitro PD assay in human whole blood (pBTK assay)
pIC50: −log10 of the molar value.
REPORTED METRIC: pIC50

Please review the entries below; each comes with its answer.
- COMPOUND: "COCCn1cc(Nc2nccc(-c3ccc4c(c3)CCCCC4NC(=O)N3CC(OC(C)C)C3)n2)cn1 (centres unmarked)"
  pIC50: "> 6.30"
- COMPOUND: "Cc1cc(-c2ccnc(Nc3cnn(C4CN(C)C4)c3)n2)ccc1CNC(=O)N1CC(OC(C)C)C1"
  pIC50: "> 6.30"
- COMPOUND: "Cc1cc(-c2cc(Nc3cc4n(n3)CCCNC4)ncn2)ccc1CNC(=O)c1cnn(C(C)(C)C)c1"
  pIC50: "> 6.30"
- COMPOUND: "Cc1cc(-c2ccnc(Nc3cnn(C[C@@H](O)CN)c3)n2)ccc1CNC(=O)c1cnc(C(C)(C)C)s1"
  pIC50: "5.82 to 6.30"
- COMPOUND: "Cc1cc(-c2ccnc(Nc3cnn(C)c3)n2)ccc1CNC(=O)c1ccc(C(C)(C)C)cn1"
  pIC50: "5.82 to 6.30"
- COMPOUND: "Cn1cc(Nc2nccc(-c3ccc4c(c3)CCCC4NC(=O)c3cc4c(s3)CCOC4)n2)cn1 (centres unmarked)"
  pIC50: "5.82 to 6.30"
- COMPOUND: "Cc1cc(-c2cc(Nc3cc4n(n3)CCNC4)ncn2)ccc1CNC(=O)N1CC(OC(C)C)C1"
  pIC50: "> 6.30"
- COMPOUND: "Cc1cc(-c2ccnc(Nc3cnn(C4CCC(C(=O)O)CC4)c3)n2)ccc1CNC(=O)c1cnn(C(C)(C)C)c1 (centres unmarked) [Example I-292]"
  pIC50: "> 6.30"
- COMPOUND: "Cc1cc(-c2ccnc(Nc3cnn(C4CCN(C)CC4)c3)n2)ccc1CNC(=O)c1cnn(C(C)(C)C)c1"
  pIC50: "> 6.30"
- COMPOUND: "CC(C)OC1CN(C(=O)NC2CCCOc3cc(-c4ccnc(Nc5cnn(C)c5)n4)ccc32)C1 (centres unmarked)"
  pIC50: "> 6.30"

### Prompt Recorded pIC50 of Cc1cc(-c2ccnc(Nc3cnn(C4CCNCC4)c3)n2)ccc1CNC(=O)c1cnc(C(C)(C)C)s1 , please.
### Response > 6.30

---

Molecular target: BTK (phospho-BTK) in human whole blood (Homo sapiens)
Assay: In vitro PD assay in human whole blood (pBTK assay)
As shown below, each of these compounds has a reported IC50 value.

- COMPOUND: "CN1CC(n2cc(Nc3nccc(-c4ccc(CNC(=O)N5CCC(C(C)(C)C)C5)c(C(F)(F)F)c4)n3)cn2)C1 (stereo not shown)"
  IC50: "< 500 nM"

### Prompt Recorded IC50 of Cc1cc(-c2ccnc(Nc3cnn(CCN)c3)n2)ccc1CNC(=O)c1cnc(C(C)(C)C)s1 , please.
### Response < 500 nM

### Prompt Recorded IC50 of Cc1cc(-c2ccnc(Nc3cnn(C[C@H](N)C(=O)O)c3)n2)ccc1CNC(=O)c1cnc(C(C)(C)C)s1 , please.
### Response < 500 nM

### Prompt Recorded IC50 of Cc1cc(-c2ccnc(Nc3cnn(C)c3)n2)ccc1CNC(=O)c1nc2c(s1)CCCC2 , please.
### Response 500 to 1500 nM
